experimentalSystem: Beta-3 Adrenergic Receptor (Homo sapiens (Human), UniProt P13945)
Sequence (P13945 whole entry, species assumed): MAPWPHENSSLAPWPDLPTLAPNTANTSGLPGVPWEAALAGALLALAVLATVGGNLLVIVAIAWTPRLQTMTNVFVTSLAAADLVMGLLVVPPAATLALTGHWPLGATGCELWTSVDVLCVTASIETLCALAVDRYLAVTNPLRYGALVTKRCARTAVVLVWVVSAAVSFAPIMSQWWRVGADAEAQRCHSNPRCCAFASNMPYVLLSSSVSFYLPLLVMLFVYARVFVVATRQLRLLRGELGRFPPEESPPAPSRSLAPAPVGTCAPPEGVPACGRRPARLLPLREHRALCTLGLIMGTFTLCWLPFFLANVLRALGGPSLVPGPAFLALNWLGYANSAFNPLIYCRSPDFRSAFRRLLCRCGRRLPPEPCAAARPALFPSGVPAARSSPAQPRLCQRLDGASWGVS
protocolSummary: Homogeneous Time-Resolved Fluorescence (HTRF) cAMP antagonist assay, IC50 determination
testConditions: CHO-K1 cells stably expressing recombinant receptor, isoproterenol at EC90
Values of IC50 strictly less than 10 nM map to T, and values of at least 10 nM map to F.

These solved cases illustrate the format of a correct answer.
compound: CNS(=O)(=O)c1cccc(OC[C@@H](O)CN[C@H]2COC3(CCN(c4nccc(OC)n4)CC3)C2)c1 [Compound 568]
className: F
--
compound: CNS(=O)(=O)c1cccc(OC[C@@H](O)CNC2COC3(CCN(S(=O)(=O)c4cc(F)ccc4Cl)CC3)C2)c1 (stereo partly drawn) [Compound 202]
className: F
--
compound: CNS(=O)(=O)c1cccc(OC[C@@H](O)CNC2COC3(CCN(S(=O)(=O)c4ccc5c(c4)CCCC5)CC3)C2)c1 (stereo partly drawn) [Compound 16]
className: T
--
compound: CNS(=O)(=O)c1cccc(OC[C@@H](O)CNC2COC3(CCN(S(=O)(=O)c4cc(Cl)cc(Cl)c4)CC3)C2)c1 (stereo partly drawn) [Compound 138]
className: F

In: Please determine if CNS(=O)(=O)c1cccc(OC[C@@H](O)CNC2COC3(CCN(S(=O)(=O)c4ccc5c(c4)NC(=O)CO5)CC3)C2)c1 (stereo partly drawn) [Compound 126] is below 10 nM in terms of IC50.
Out: F

In: Please determine if CNS(=O)(=O)c1cccc(OC[C@@H](O)CNC2COC3(CCN(S(=O)(=O)c4cc(S(=O)(=O)c5ccccc5)cs4)CC3)C2)c1 (stereo partly drawn) [Compound 190] is below 10 nM in terms of IC50.
Out: F

---

experimentalSystem: Beta-3 Adrenergic Receptor (Homo sapiens (Human), UniProt P13945)
protocolSummary: Homogeneous Time-Resolved Fluorescence (HTRF) cAMP antagonist assay, IC50 determination
testConditions: CHO-K1 cells stably expressing recombinant receptor, isoproterenol at EC90
outcomeMeasure: IC50 (nM)
Give the value, in units of nM, as a plain number.

Reference set, count: 2
compound: CNS(=O)(=O)c1cccc(OC[C@@H](O)CNC2COC3(CCN(S(=O)(=O)c4cc(-c5ccc(CN)cc5)ccc4OC(F)(F)F)CC3)C2)c1 (stereo partly drawn)
outcomeMeasure: IC50
assayValue: 9.84
//
compound: CNS(=O)(=O)c1cccc(OC[C@@H](O)CN[C@H]2COC3(CCN(S(=O)(=O)c4cccc(-c5cnn(C)c5)c4)CC3)C2)c1
outcomeMeasure: IC50
assayValue: 7.41

In: Item: CNS(=O)(=O)c1cccc(OC[C@@H](O)CNC2COC3(CCN(S(=O)(=O)c4ccc(OC)c(OC)c4)CC3)C2)c1 (stereo partly drawn) Test system: Beta-3 Adrenergic Receptor (Homo sapiens (Human), UniProt P13945) Read-out: IC50 Value: ?
Out: 43.6

---

experimentalSystem: Beta-3 Adrenergic Receptor (Homo sapiens (Human))
protocolSummary: Homogeneous Time-Resolved Fluorescence (HTRF) cAMP antagonist assay, IC50 determination
Assay type: cell-based
testConditions: CHO-K1 cells stably expressing recombinant receptor, isoproterenol at EC90
Values of IC50 strictly less than 30 nM map to Yes, and values of at least 30 nM map to No.

compound: CNS(=O)(=O)c1cccc(OC[C@@H](O)CNC2COC3(CCN(S(=O)(=O)c4cc5ccccc5o4)CC3)C2)c1 (stereo partly shown)
className: Yes
--
compound: CNS(=O)(=O)c1cccc(OC[C@@H](O)CNC2COC3(CCN(S(=O)(=O)c4cccc(-c5ccc(CNCC(F)F)cc5)c4)CC3)C2)c1 (stereo partly shown)
className: No
--
compound: CNS(=O)(=O)c1cccc(OC[C@@H](O)CN[C@H]2COC3(CCN(S(=O)(=O)c4cnc5[nH]cc(C#N)c5c4)CC3)C2)c1
className: Yes
--
compound: O=S(=O)(NC[C@H](O)CO)c1cccc(OC[C@@H](O)CNC2COC3(CCN(S(=O)(=O)c4ccc5ccccc5c4)CC3)C2)c1 (stereo partly shown)
className: No

In: Please determine if CNS(=O)(=O)c1cccc(OC[C@@H](O)CNC2COC3(CCN(S(=O)(=O)c4cccc(-c5cccnc5)c4)CC3)C2)c1 (stereo partly shown) is below 30 nM in terms of IC50.
Out: Yes

In: Please determine if CCNS(=O)(=O)c1cccc(OC[C@@H](O)CNC2COC3(CCN(S(=O)(=O)c4ccc5ccccc5c4)CC3)C2)c1 (stereo partly shown) is below 30 nM in terms of IC50.
Out: Yes

In: Please determine if CNS(=O)(=O)c1cccc(OC[C@@H](O)CNC2COC3(CCN(S(=O)(=O)c4ccccc4S(C)(=O)=O)CC3)C2)c1 (stereo partly shown) is below 30 nM in terms of IC50.
Out: No

In: Please determine if CN(C)S(=O)(=O)c1cccc(OC[C@@H](O)CNC2COC3(CCN(S(=O)(=O)c4ccc5ccccc5c4)CC3)C2)c1 (stereo partly shown) is below 30 nM in terms of IC50.
Out: Yes

In: Please determine if CNS(=O)(=O)c1cccc(OC[C@@H](O)CNC2COC3(CCN(S(=O)(=O)c4ccc(-c5cc(C(F)(F)F)nn5C)s4)CC3)C2)c1 (stereo partly shown) is below 30 nM in terms of IC50.
Out: No

In: Please determine if "CNS(=O)(=O)c1cccc(OC[C@@H](O)CN[C@@H]2COC3(CCN(S(=O)(=O)c4cccc5nsnc45)CC3)C2)c1" is below 30 nM in terms of IC50.
Out: No

In: Please determine if CNS(=O)(=O)c1cccc(OC[C@@H](O)CNC2COC3(CCN(S(=O)(=O)c4cccc(-c5ccc(CNC(=O)CC(=O)O)cc5)c4)CC3)C2)c1 (stereo partly shown) is below 30 nM in terms of IC50.
Out: No

In: Please determine if CNS(=O)(=O)c1cccc(OC[C@@H](O)CNC2COC3(CCN(S(=O)(=O)c4ccoc4)CC3)C2)c1 (stereo partly shown) is below 30 nM in terms of IC50.
Out: Yes
